- test: Solubility of crystal forms in different environments
- Format: physicochemical
- condition-parameters: pH 6.8 PBS solution, 75 °C, pH 6.8, aqueous buffer, thermodynamic from solid, pH 6.8 PBS solution; 75° C.; read-out: solubility
measure-name: solubility (µg/mL)
Answer format: numeric, µg/mL implied, no suffix.

Field request: solubility | item: COc1ncc(-c2ccc3ncc(C#N)c(N4CCOC[C@H]4C)c3c2)cc1NS(C)(=O)=O [crystal form I]
1.41

---

- test: Solubility of crystal forms in different environments
- Format: physicochemical
- condition-parameters: simulated fasting intestinal fluid (FaSSIF), 37 °C, fassif, thermodynamic from solid, Simulated fasting intestinal fluid (FaSSIF); 37° C.; read-out: solubility
measure-name: solubility (µg/mL)
Answer format: numeric, µg/mL implied, no suffix.

Field request: solubility | item: COc1ncc(-c2ccc3ncc(C#N)c(N4CCOC[C@H]4C)c3c2)cc1NS(C)(=O)=O [crystal form I]
2.87
